# Test system: Mus musculus
# MEASUREMENT PROTOCOL: Toxicity in ICR mouse xenografted with mouse S180 cells assessed as effect on liver weight at 8.9 umol/kg
# Format: organism-based, CCRF S-180
# ASSAY CONDITIONS: in vivo
Peptide text beside a SMILES is read from it. * marks the point of attachment. OBn = c1ccc(CO*)cc1
MEASUREMENT TYPE: Activity (g)

N[C@@H](Cc1c[nH]c2ccccc12)C(=O)N[C@@H](Cc1c[nH]c2ccccc12)C(=O)N[C@@H](CCC(=O)O)C(=O)OCc1ccccc1 (H-Trp-Trp-Glu-OBn)	1.86
N[C@@H](Cc1c[nH]c2ccccc12)C(=O)N[C@@H](Cc1c[nH]c2ccccc12)C(=O)N[C@@H](Cc1c[nH]c2ccccc12)C(=O)OCc1ccccc1 (H-Trp-Trp-Trp-OBn)	1.78
NC(=O)C[C@H](NC(=O)[C@H](Cc1c[nH]c2ccccc12)NC(=O)[C@@H](N)Cc1c[nH]c2ccccc12)C(=O)OCc1ccccc1 (H-Trp-Trp-Asn-OBn)	1.82
CC(C)[C@H](NC(=O)[C@H](Cc1c[nH]c2ccccc12)NC(=O)[C@@H](N)Cc1c[nH]c2ccccc12)C(=O)OCc1ccccc1 (H-Trp-Trp-Val-OBn)	1.89

---

# System: CCRF S-180
# MEASUREMENT PROTOCOL: Antiproliferative activity against mouse S180 cells after 48 hrs by MTT assay
# Format: functional, cell-based
# ASSAY CONDITIONS: CCRF S-180, 48 h
pIC50: −log10 of the molar value. Peptide text beside a SMILES is read from it. * marks the point of attachment. OBn = c1ccc(CO*)cc1
MEASUREMENT TYPE: pIC50

N[C@@H](Cc1c[nH]c2ccccc12)C(=O)N[C@@H](Cc1c[nH]c2ccccc12)C(=O)N[C@@H](Cc1c[nH]c2ccccc12)C(=O)OCc1ccccc1 (H-Trp-Trp-Trp-OBn)	3.94
N[C@@H](Cc1c[nH]c2ccccc12)C(=O)N[C@@H](Cc1c[nH]c2ccccc12)C(=O)N[C@@H](CO)C(=O)OCc1ccccc1 (H-Trp-Trp-Ser-OBn)	4.38
N[C@@H](Cc1c[nH]c2ccccc12)C(=O)N[C@@H](Cc1c[nH]c2ccccc12)C(=O)N1CCC[C@H]1C(=O)OCc1ccccc1 (H-Trp-Trp-Pro-OBn)	4.90
NC(=O)C[C@H](NC(=O)[C@H](Cc1c[nH]c2ccccc12)NC(=O)[C@@H](N)Cc1c[nH]c2ccccc12)C(=O)OCc1ccccc1 (H-Trp-Trp-Asn-OBn)	4.81
N[C@@H](Cc1c[nH]c2ccccc12)C(=O)N[C@@H](Cc1c[nH]c2ccccc12)C(=O)N[C@@H](Cc1ccc(O)cc1)C(=O)OCc1ccccc1 (H-Trp-Trp-Tyr-OBn)	4.44
C[C@H](NC(=O)[C@H](Cc1c[nH]c2ccccc12)NC(=O)[C@@H](N)Cc1c[nH]c2ccccc12)C(=O)OCc1ccccc1 (H-Trp-Trp-Ala-OBn)	4.73
CC(C)[C@H](NC(=O)[C@H](Cc1c[nH]c2ccccc12)NC(=O)[C@@H](N)Cc1c[nH]c2ccccc12)C(=O)OCc1ccccc1 (H-Trp-Trp-Val-OBn)	5.09
CC(C)C[C@H](NC(=O)[C@H](Cc1c[nH]c2ccccc12)NC(=O)[C@@H](N)Cc1c[nH]c2ccccc12)C(=O)OCc1ccccc1 (H-Trp-Trp-Leu-OBn)	3.93
COc1cccc2c1C(=O)c1c(O)c3c(c(O)c1C2=O)C[C@@](O)(C(=O)CO)C[C@@H]3O[C@H]1C[C@H](N)[C@H](O)[C@H](C)O1	4.53
CC[C@H](C)[C@H](NC(=O)[C@H](Cc1c[nH]c2ccccc12)NC(=O)[C@@H](N)Cc1c[nH]c2ccccc12)C(=O)OCc1ccccc1 (H-Trp-Trp-Ile-OBn)	4.72
C[C@@H](O)[C@H](NC(=O)[C@H](Cc1c[nH]c2ccccc12)NC(=O)[C@@H](N)Cc1c[nH]c2ccccc12)C(=O)OCc1ccccc1 (H-Trp-Trp-Thr-OBn)	4.93
N[C@@H](Cc1c[nH]c2ccccc12)C(=O)N[C@@H](Cc1c[nH]c2ccccc12)C(=O)N[C@@H](Cc1ccccc1)C(=O)OCc1ccccc1 (H-Trp-Trp-Phe-OBn)	4.84

---

# Tested on: Mus musculus
# MEASUREMENT PROTOCOL: Toxicity in ICR mouse xenografted with mouse S180 cells assessed as effect on brain weight at 8.9 umol/kg
# Assay type: organism-based, CCRF S-180
# ASSAY CONDITIONS: in vivo
Peptide text beside a SMILES is read from it. * marks the point of attachment. OBn = c1ccc(CO*)cc1
MEASUREMENT TYPE: Activity (g)

NC(=O)CC[C@H](NC(=O)[C@H](Cc1c[nH]c2ccccc12)NC(=O)[C@@H](N)Cc1c[nH]c2ccccc12)C(=O)OCc1ccccc1 (H-Trp-Trp-Gln-OBn)	0.27
C[C@@H](O)[C@H](NC(=O)[C@H](Cc1c[nH]c2ccccc12)NC(=O)[C@@H](N)Cc1c[nH]c2ccccc12)C(=O)OCc1ccccc1 (H-Trp-Trp-Thr-OBn)	0.3
N[C@@H](Cc1c[nH]c2ccccc12)C(=O)N[C@@H](Cc1c[nH]c2ccccc12)C(=O)N[C@@H](Cc1ccc(O)cc1)C(=O)OCc1ccccc1 (H-Trp-Trp-Tyr-OBn)	0.27

---

# Tested on: Mus musculus
# MEASUREMENT PROTOCOL: Toxicity in ICR mouse xenografted with mouse S180 cells assessed as effect on brain weight at 8.9 umol/kg
# Format: organism-based, CCRF S-180
# ASSAY CONDITIONS: in vivo
Peptide text beside a SMILES is read from it. * marks the point of attachment. OBn = c1ccc(CO*)cc1
Quick list: Activity per entry.
MEASUREMENT TYPE: Activity (g)

N[C@@H](Cc1c[nH]c2ccccc12)C(=O)N[C@@H](Cc1c[nH]c2ccccc12)C(=O)N[C@@H](CO)C(=O)OCc1ccccc1 (H-Trp-Trp-Ser-OBn)	0.28
N[C@@H](Cc1c[nH]c2ccccc12)C(=O)N[C@@H](Cc1c[nH]c2ccccc12)C(=O)N[C@@H](Cc1ccccc1)C(=O)OCc1ccccc1 (H-Trp-Trp-Phe-OBn)	0.28
N[C@@H](Cc1c[nH]c2ccccc12)C(=O)N[C@@H](Cc1c[nH]c2ccccc12)C(=O)N1CCC[C@H]1C(=O)OCc1ccccc1 (H-Trp-Trp-Pro-OBn)	0.27
N[C@@H](Cc1c[nH]c2ccccc12)C(=O)N[C@@H](Cc1c[nH]c2ccccc12)C(=O)N[C@@H](Cc1c[nH]c2ccccc12)C(=O)OCc1ccccc1 (H-Trp-Trp-Trp-OBn)	0.29
CC(C)[C@H](NC(=O)[C@H](Cc1c[nH]c2ccccc12)NC(=O)[C@@H](N)Cc1c[nH]c2ccccc12)C(=O)OCc1ccccc1 (H-Trp-Trp-Val-OBn)	0.27
N[C@@H](Cc1c[nH]c2ccccc12)C(=O)N[C@@H](Cc1c[nH]c2ccccc12)C(=O)N[C@@H](CCC(=O)O)C(=O)OCc1ccccc1 (H-Trp-Trp-Glu-OBn)	0.27

---

Quick list: Activity per entry.
# Tested on: Mus musculus
# MEASUREMENT PROTOCOL: Toxicity in ICR mouse xenografted with mouse S180 cells assessed as increase in body weight at 8.9 umol/kg
# Format: organism-based, CCRF S-180
# ASSAY CONDITIONS: in vivo
Peptide text beside a SMILES is read from it. * marks the point of attachment. OBn = c1ccc(CO*)cc1
MEASUREMENT TYPE: Activity

N[C@@H](Cc1c[nH]c2ccccc12)C(=O)N[C@@H](Cc1c[nH]c2ccccc12)C(=O)N1CCC[C@H]1C(=O)OCc1ccccc1 (H-Trp-Trp-Pro-OBn)	10.24 g
CC(C)C[C@H](NC(=O)[C@H](Cc1c[nH]c2ccccc12)NC(=O)[C@@H](N)Cc1c[nH]c2ccccc12)C(=O)OCc1ccccc1 (H-Trp-Trp-Leu-OBn)	8.4 g
N[C@@H](Cc1c[nH]c2ccccc12)C(=O)N[C@@H](Cc1c[nH]c2ccccc12)C(=O)N[C@@H](Cc1cnc[nH]1)C(=O)OCc1ccccc1 (H-Trp-Trp-His-OBn)	10.04 g
CSCC[C@H](NC(=O)[C@H](Cc1c[nH]c2ccccc12)NC(=O)[C@@H](N)Cc1c[nH]c2ccccc12)C(=O)OCc1ccccc1 (H-Trp-Trp-Met-OBn)	8.93 g
NC(=O)CC[C@H](NC(=O)[C@H](Cc1c[nH]c2ccccc12)NC(=O)[C@@H](N)Cc1c[nH]c2ccccc12)C(=O)OCc1ccccc1 (H-Trp-Trp-Gln-OBn)	9.89 g
N[C@@H](Cc1c[nH]c2ccccc12)C(=O)N[C@@H](Cc1c[nH]c2ccccc12)C(=O)N[C@@H](CO)C(=O)OCc1ccccc1 (H-Trp-Trp-Ser-OBn)	9.95 g
C[C@H](NC(=O)[C@H](Cc1c[nH]c2ccccc12)NC(=O)[C@@H](N)Cc1c[nH]c2ccccc12)C(=O)OCc1ccccc1 (H-Trp-Trp-Ala-OBn)	9.5 g
